Collected Ki for 5-hydroxytryptamine receptor 1A (Homo sapiens, UniProt P08908) across several studies; molecules listed below.
Label MET when Ki < 300 nM; otherwise NOT MET.

Q: In plain terms, does `Cl.Nc1nc(NCCc2ccccc2)nc(NCCc2c[nH]c3ccc(Cl)cc23)n1` come in under 300 nM for Ki?
Ans: NOT MET

Q: Given the entry `O=S(=O)(NCC1CCN(CCOc2ccccc2OCC(F)(F)F)CC1)c1cc(Cl)ccc1F` , would its reported Ki be below 300 nM?
Ans: MET

Q: Is it true that Ki reported for CCOc1ccccc1N1CCN(CC(O)CN2C(=O)N/C(=C\c3ccc(OC)cc3)C2=O)CC1 (centres unmarked) is less than 300 nM?
Ans: NOT MET

Q: Hi there! Is Ki for `Cl.Nc1nc(NCCc2c[nH]c3ccccc23)nc(NCCn2cnc3ccccc32)n1` below 300 nM, do you know?
Ans: NOT MET

Q: is_below(Ki, 300 nM) for `CCOc1ccccc1N1CCN(CCCN2C(=O)N/C(=C\c3ccc(OC)cc3)C2=O)CC1` ?
Ans: MET

* * *

A compilation of published log10 of Ki results with 5-hydroxytryptamine receptor 1A (Homo sapiens, UniProt P08908).
All values: base-10 log of Ki in nM.

Q: Tell me reported log10 of Ki for `CN1CCN(c2nc(N)nc(CN3C(=O)NC(c4ccc(Cl)cc4)(c4ccc(Cl)cc4)C3=O)n2)CC1` , tested with 5-hydroxytryptamine receptor 1A (Homo sapiens, UniProt P08908).
Ans: 3.48

Q: Give 5-hydroxytryptamine receptor 1A (Homo sapiens, UniProt P08908) log10 of Ki for `O=c1c(-c2ccc(F)cc2)c2ccccn2c(=O)n1CCCCN1CCC(c2noc3cc(F)ccc23)CC1`
Ans: 1.23

Q: Which log10 of Ki is reported with 5-hydroxytryptamine receptor 1A (Homo sapiens, UniProt P08908) for this entry: `CN1CCN(c2nc(N)nc(CN3C(=O)N(Cc4ccc(Cl)cc4)C(C)(C)C3=O)n2)CC1` ?
Ans: 4.37

Q: Form entry - test system: 5-hydroxytryptamine receptor 1A (Homo sapiens, UniProt P08908); read-out: log10 of Ki; compound: `Cl.O=S(=O)(NCCCCN1CCN(c2cccc(Cl)c2)CC1)c1cc2ccccc2cn1`
Ans: 1.58

Q: Give recorded log10 of Ki with 5-hydroxytryptamine receptor 1A (Homo sapiens, UniProt P08908) for the following compound: `O=c1c(-c2ccccc2Cl)c2ccccn2c(=O)n1CCCCN1CCC(c2noc3cc(F)ccc23)CC1`
Ans: 1.04

Q: So what log10 of Ki did `COc1c(Cl)cccc1N1CCN(CCCCNC(=O)c2cc3ccccc3[nH]2)CC1` get with 5-hydroxytryptamine receptor 1A (Homo sapiens, UniProt P08908)?
Ans: 1.97

Q: Hello, I am looking for reported log10 of Ki with 5-hydroxytryptamine receptor 1A (Homo sapiens, UniProt P08908) for `COc1ccccc1-c1c(=O)n(CCCCN2CCC(c3noc4cc(F)ccc34)CC2)c(=O)n2ccccc12` . Could you help?
Ans: 0.85

Q: I'm curious: which log10 of Ki was measured for `O=c1c(-c2ccccc2F)c2n(c(=O)n1CCCCN1CCC(c3noc4cc(F)ccc34)CC1)CCCC2` tested on 5-hydroxytryptamine receptor 1A (Homo sapiens, UniProt P08908)?
Ans: 1.56

Q: Query the reported log10 of Ki for 5-hydroxytryptamine receptor 1A (Homo sapiens, UniProt P08908); item: `COc1ccc(-c2c(=O)n(CCCCN3CCC(c4noc5cc(F)ccc45)CC3)c(=O)n3ccccc23)cc1`
Ans: 1.00

Q: Query the reported log10 of Ki for 5-hydroxytryptamine receptor 1A (Homo sapiens, UniProt P08908); item: `COc1ccc2[nH]cc(CCNc3nc(N)nc(NCCc4ccccc4)n3)c2c1.Cl`
Ans: 3.50

Q: // lookup log10 of Ki | system=5-hydroxytryptamine receptor 1A (Homo sapiens, UniProt P08908) | key= `O=c1c(-c2ccc(F)cc2)c2n(c(=O)n1CCCCN1CCC(c3noc4cc(F)ccc34)CC1)CCCC2`
Ans: 0.98

Q: Please state recorded log10 of Ki (tested on 5-hydroxytryptamine receptor 1A (Homo sapiens, UniProt P08908)) of `O=c1c(-c2ccccc2F)c2ccccn2c(=O)n1CCCCN1CCC(c2noc3cc(F)ccc23)CC1`
Ans: 1.18

Q: Find log10 of Ki (5-hydroxytryptamine receptor 1A (Homo sapiens, UniProt P08908)) for the entry COc1cccc(/C=C2\NC(=O)N(CC(O)CN3CCN(c4ccccc4OC)CC3)C2=O)c1 (stereo not shown)
Ans: 2.72

Q: Record lookup: for 5-hydroxytryptamine receptor 1A (Homo sapiens, UniProt P08908), what log10 of Ki belongs to `Cl.Nc1nc(NCCc2ccccc2)nc(NCCc2c[nH]c3ccc(Br)cc23)n1` ?
Ans: 4.04

Q: Find the measured log10 of Ki: item `CCCCc1cc(-c2ccoc2)nc(N2CCN(C)CC2)n1` , target or system 5-hydroxytryptamine receptor 1A (Homo sapiens, UniProt P08908).
Ans: 2.80

Q: Give 5-hydroxytryptamine receptor 1A (Homo sapiens, UniProt P08908) log10 of Ki for `COc1ccc(-c2c3n(c(=O)n(CCCCN4CCC(c5noc6cc(F)ccc56)CC4)c2=O)CCCC3)cc1`
Ans: 0.70
